- experiment.notes: Metabolite profiling of plasma extracts by radio-HPLC (Group 3)
- Type: in vivo, rat
- condition.set: rat, plasma, oral, 30 mg/kg; 2 hours, female rats; read-out: Concentration in plasma extract
recorded.endpoint: concentration at 2 h (ng/g)

compound="O=C(O)c1ccc(F)c(F)c1Nc1ccc(I)cc1Cl [zapnometinib]" observed_measurement=78400

====

- experiment.notes: Metabolite profiling of plasma extracts by radio-HPLC (Group 3)
- Assay type: in vivo, rat
- condition.set: rat, plasma, oral, 30 mg/kg; 8 hours, male rats; read-out: Concentration in plasma extract
recorded.endpoint: concentration at 8 h (ng/g)

compound_smiles=O=C(O)c1ccc(F)c(F)c1Nc1ccc(I)cc1Cl observed_measurement=72100

====

- experiment.notes: Metabolite profiling of plasma extracts by radio-HPLC (Group 3)
- Type: in vivo, rat
- condition.set: rat, plasma, oral, 30 mg/kg; 2 hours, male rats; read-out: Concentration in plasma extract
recorded.endpoint: concentration at 2 h (ng/g)

compound_smiles=O=C(O)c1ccc(F)c(F)c1Nc1ccc(I)cc1Cl unit_label=ng/g observed_measurement=64400

====

- experiment.notes: Metabolite profiling of plasma extracts by radio-HPLC (Group 3)
- Format: in vivo, rat
- condition.set: rat, plasma, oral, 30 mg/kg; 8 hours, female rats; read-out: Concentration in plasma extract
recorded.endpoint: concentration at 8 h (ng/g)

compound_smiles=O=C(O)c1ccc(F)c(F)c1Nc1ccc(I)cc1Cl unit_label=ng/g observed_measurement=80700
